Where do the numbers come from? From PubChem BioAssay (EPA / NIEHS).

Experiment: ATG_M_32_CIS: Attagene CIS-FACTORIAL HepG2 Assay for M32 Transcription Factor (Internal Marker) (AID 2282949);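 further: background control marker of the multiplexed CIS panel rather than a real target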
Conditions: HepG2 Attagene cis-factorial M32 reporter, mRNA; actives raise or lower the signal
Active and inactive are the calls of the source. How the source made its calls: active means hit-call score of the fitted dose curve at least 0.9, where 1 is the maximum; inactive means score below 0.9.
readout: outcome

> print(dat)
                                   molecule  readout    result
1  O=C1C=CC(=O)N1c1ccc(Cc2ccc(N3C(=O)C=CC3=O)cc2)cc1  outcome  inactive
2  O=C(Cl)C(F)(F)C(F)(F)C(F)(F)C(F)(F)C(F)(F)C(F)(F)F  outcome  inactive
3  O=C(O)CCC(F)(F)C(F)(F)C(F)(F)C(F)(F)C(F)(F)C(F)(F)C(F)(F)F  outcome  inactive
4  c1ccc(C[P+](c2ccccc2)(c2ccccc2)c2ccccc2)cc1  outcome  inactive
5            OCC1CCCO1 (stereo unspecified)  outcome  inactive
6                            CSc1ccc(O)cc1C  outcome  inactive

====

Test: Tanguay_ZF_120hpf_MORT: Oregon State University Tanguay Lab 120 Hour Post-fertilization zebrafish Assay for Mortality (AID 2284399)
The source made the active and inactive calls. How the source made its calls: active means hit-call score of the fitted dose curve at least 0.9, where 1 is the maximum; inactive means score below 0.9.
readout: outcome

> print(dat)
                              smiles.string    result
1  NC(=O)C(F)(F)C(F)(F)C(F)(F)C(F)(F)C(N)=O  inactive
2  CCN(CCO)S(=O)(=O)C(F)(F)C(F)(F)C(F)(F)C(F)(F)C(F)(F)C(F)(F)C(F)(F)C(F)(F)F  inactive
3  O=C(F)C1(F)C(F)(F)C(F)(F)C(F)(F)C(F)(F)C1(F)F  inactive
4  CO[Si](C)(CCC(F)(F)C(F)(F)C(F)(F)C(F)(F)C(F)(F)C(F)(F)F)OC  inactive

====

Experiment: Tanguay_ZF_120hpf_MORT: Oregon State University Tanguay Lab 120 Hour Post-fertilization zebrafish Assay for Mortality (AID 2284399)
The source made the active and inactive calls. The calls were made as follows: active = hit-call score of the fitted dose curve at least 0.9, where 1 is the maximum; inactive = score below 0.9.
Labels: active, inactive

> print(dat)
                                    molecule     group
 1  O=S(=O)(O)CCC(F)(F)C(F)(F)C(F)(F)C(F)(F)C(F)(F)C(F)(F)C(F)(F)C(F)(F)F    active
 2  O=S(=O)(O)CCC(F)(F)C(F)(F)C(F)(F)C(F)(F)F  inactive
 3  OCC(F)(F)C(F)(F)C(F)(F)C(F)(F)C(F)(F)C(F)(F)CO  inactive
 4  COC(F)(C(F)F)C(F)(F)F (stereo unspecified)  inactive
 5      O=C(O)C(F)(F)C(F)(F)C(F)(F)OC(F)(F)F  inactive
 6  C=CC(=O)OCCC(F)(F)C(F)(F)C(F)(F)C(F)(F)F  inactive
 7  NS(=O)(=O)C(F)(F)C(F)(F)C(F)(F)C(F)(F)C(F)(F)C(F)(F)F    active
 8  OCC(O)CC(F)(F)C(F)(F)C(F)(F)C(F)(F)F (stereo unspecified)  inactive
 9             CCOC(=O)CC(=O)C(F)(F)C(F)(F)F  inactive
10  FC(F)(F)C(F)(F)C(F)(F)C(F)(F)C(F)(F)C(F)(F)C(F)(F)CCI  inactive
11  O=S(=O)(OCC(F)(F)F)C(F)(F)C(F)(F)C(F)(F)C(F)(F)F  inactive

====

Target: mouse Estrogen Receptor alpha (Era), Esr1 (gene 13982) (UniProt P19785)
Sequence (P19785 whole entry, looked up): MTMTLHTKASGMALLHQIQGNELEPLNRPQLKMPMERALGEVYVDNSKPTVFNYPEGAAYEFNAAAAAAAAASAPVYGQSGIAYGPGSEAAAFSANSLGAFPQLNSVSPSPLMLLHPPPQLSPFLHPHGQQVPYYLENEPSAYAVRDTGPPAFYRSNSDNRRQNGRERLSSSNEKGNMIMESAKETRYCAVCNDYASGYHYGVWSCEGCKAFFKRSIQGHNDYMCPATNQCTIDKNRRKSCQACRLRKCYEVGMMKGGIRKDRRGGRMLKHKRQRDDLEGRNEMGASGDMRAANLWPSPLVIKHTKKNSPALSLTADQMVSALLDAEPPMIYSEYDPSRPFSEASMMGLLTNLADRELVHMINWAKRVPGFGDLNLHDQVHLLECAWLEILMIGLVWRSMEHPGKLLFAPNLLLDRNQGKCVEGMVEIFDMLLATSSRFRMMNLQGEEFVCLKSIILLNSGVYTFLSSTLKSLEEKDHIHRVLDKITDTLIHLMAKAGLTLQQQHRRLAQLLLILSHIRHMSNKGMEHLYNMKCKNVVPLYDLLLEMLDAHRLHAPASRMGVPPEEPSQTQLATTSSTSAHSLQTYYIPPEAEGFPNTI
Assay: NVS_NR_mERa: NovaScreen (NVS) Nuclear Receptor Binding Assay for mouse Estrogen Receptor alpha (Era) (AID 2283378);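 further: hit means loss of bound radioligand signal relative to DMSO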
Records with an inconclusive call do not appear. Calls of active or inactive are those of the source. How the source made its calls: active means hit-call score of the fitted dose curve at least 0.9, where 1 is the maximum; inconclusive means response in the unintended direction; inactive means score below 0.9.
Labels: active, inactive

> print(dat)
                              smiles.string     group
1              Cc1ccc(O)c(-n2nc3ccccc3n2)c1    active
2                   CCCCCCCCCc1ccc(OCCO)cc1  inactive
3                 CCCCCCCCn1sc(Cl)c(Cl)c1=O    active
4  CCN=c1cc2oc3cc(NCC)c(C)cc3c(-c3ccccc3C(=O)OCC)c-2cc1C    active
5        CCCCCCCCCCCCCC[P+](CCCC)(CCCC)CCCC  inactive
6      CCCCCCCC/C=C\CCCCCCCC(=O)N(C)CC(=O)O  inactive

====

Target: Bile acid receptor (Homo sapiens)
Assay: ATG_IR1_CIS: Attagene CIS-FACTORIAL HepG2 Assay for human Nuclear Receptor Subfamily 1 Group H Member 4 (NR1H4), IR1 submotif (AID 2282946)
Conditions: IR1 reporter transcription, actives raise or lower the signal
Activity calls are given as the source filed them. How the source made its calls: active means hit-call score of the fitted dose curve at least 0.9, where 1 is the maximum; inactive means score below 0.9.
Labels: active, inactive

compound	measured-on	group
c1ccc(C[P+](c2ccccc2)(c2ccccc2)c2ccccc2)cc1	Bile acid receptor (Homo sapiens)	inactive
O=C1c2ccccc2C(=O)c2c(Cl)cccc21	Bile acid receptor (Homo sapiens)	inactive
CC(C)Nc1ccc(NC(C)C)c2c1C(=O)c1ccccc1C2=O	Bile acid receptor (Homo sapiens)	inactive
O=S(=O)(O)c1ccc(Cl)cc1	Bile acid receptor (Homo sapiens)	inactive
COC(=O)c1ccc(C=O)cc1	Bile acid receptor (Homo sapiens)	inactive
OCCC(O)CO (stereo not given)	Bile acid receptor (Homo sapiens)	inactive
Oc1ccc(C2(c3ccc(O)c(C4CCCCC4)c3)CCCCC2)cc1C1CCCCC1	Bile acid receptor (Homo sapiens)	inactive
Cc1ccc([N+](=O)[O-])c(C)c1	Bile acid receptor (Homo sapiens)	inactive
CC(=O)CCC(C)C	Bile acid receptor (Homo sapiens)	inactive
COCCOCCC[Si](C)(O[Si](C)(C)C)O[Si](C)(C)C	Bile acid receptor (Homo sapiens)	active
O=C1OC(=O)c2ccc3c4c(ccc1c24)C(=O)OC3=O	Bile acid receptor (Homo sapiens)	inactive
OCCCc1cccnc1	Bile acid receptor (Homo sapiens)	inactive
CCCCC(CC)COC(=O)c1ccc(N(C)C)cc1 (stereo not given)	Bile acid receptor (Homo sapiens)	inactive
CC(=O)C=O	Bile acid receptor (Homo sapiens)	inactive
O=C1c2c(O)ccc(Nc3ccc(CCO)cc3)c2C(=O)c2c([N+](=O)[O-])ccc(O)c21	Bile acid receptor (Homo sapiens)	inactive
CCCCCCCC/C=C\CCCCCCCC(=O)OCC(O)CO (stereo not given)	Bile acid receptor (Homo sapiens)	inactive
CCc1cc(Cc2cc(CC)c(N)c(CC)c2)cc(CC)c1N	Bile acid receptor (Homo sapiens)	inactive
CN(C(=O)C(F)(F)C(F)(F)C(F)(F)F)[Si](C)(C)C	Bile acid receptor (Homo sapiens)	inactive
CN(N=O)C(=O)N[C@@H]1[C@@H](O)[C@H](O)[C@@H](CO)O[C@@H]1O	Bile acid receptor (Homo sapiens)	inactive
CCCCOC(=O)[C@H](C)O	Bile acid receptor (Homo sapiens)	inactive
O=C(O)C(F)(F)C(F)(F)C(F)(F)C(=O)O	Bile acid receptor (Homo sapiens)	inactive
CCOC(C=C(C)CCC=C(C)C)OCC	Bile acid receptor (Homo sapiens)	inactive
CC(C)CC=C(C=O)c1ccccc1	Bile acid receptor (Homo sapiens)	inactive
CC(C)(C)c1cc(CCC(=O)OCC(COC(=O)CCc2cc(C(C)(C)C)c(O)c(C(C)(C)C)c2)(COC(=O)CCc2cc(C(C)(C)C)c(O)c(C(C)(C)C)c2)COC(=O)CCc2cc(C(C)(C)C)c(O)c(C(C)(C)C)c2)cc(C(C)(C)C)c1O	Bile acid receptor (Homo sapiens)	inactive
N#Cc1ccccc1O	Bile acid receptor (Homo sapiens)	inactive
O=C(O)C(F)(F)C(F)(F)C(F)(F)C(F)(F)C(F)(F)C(F)(F)C(F)F	Bile acid receptor (Homo sapiens)	inactive
FC(F)(F)C(F)(F)C(F)(F)CC1CO1 (stereo not given)	Bile acid receptor (Homo sapiens)	inactive
OCC(F)(F)C(F)(F)C(F)(F)C(F)(F)C(F)(F)C(F)(F)CO	Bile acid receptor (Homo sapiens)	inactive
NC(=O)C(F)(F)C(F)(F)C(F)(F)C(F)(F)C(N)=O	Bile acid receptor (Homo sapiens)	inactive
C=CCOC(=O)CC(C)C	Bile acid receptor (Homo sapiens)	inactive
OCC(F)(F)C(F)(F)C(F)(F)C(F)(F)C(F)(F)C(F)(F)C(F)(F)C(F)(F)CO	Bile acid receptor (Homo sapiens)	inactive
Cc1cc(O)c(C(C)(C)C)cc1C(C)(C)C	Bile acid receptor (Homo sapiens)	active
Brc1ccccn1	Bile acid receptor (Homo sapiens)	inactive
CC(C)CCCC(C)CCO (stereo not given)	Bile acid receptor (Homo sapiens)	inactive
C[C@]12CC[C@H]3C(=CCc4cc(O)ccc43)[C@@H]1CCC2=O	Bile acid receptor (Homo sapiens)	inactive
OC(O)C(F)(F)C(F)(F)F	Bile acid receptor (Homo sapiens)	inactive
CC(C)(C)c1cc(CCC(=O)NCCCCCCNC(=O)CCc2cc(C(C)(C)C)c(O)c(C(C)(C)C)c2)cc(C(C)(C)C)c1O	Bile acid receptor (Homo sapiens)	inactive
CCCCCCCC/C=C\CCCCCCCC(=O)N(C)CC(=O)O	Bile acid receptor (Homo sapiens)	inactive
CCN=C1C=CC(=C(c2ccc(N(CC)CC)cc2)c2ccc(N(CC)CC)cc2)c2ccccc21	Bile acid receptor (Homo sapiens)	active
CC(C)OC(=O)COc1ccc(Cl)cc1Cl	Bile acid receptor (Homo sapiens)	inactive
CCC(Cc1c(I)cc(I)c(N)c1I)C(=O)O (stereo not given)	Bile acid receptor (Homo sapiens)	inactive
O=S(=O)(O)CCC(F)(F)C(F)(F)C(F)(F)C(F)(F)F	Bile acid receptor (Homo sapiens)	inactive
CO[Si](C)(CCC(F)(F)C(F)(F)C(F)(F)C(F)(F)C(F)(F)C(F)(F)F)OC	Bile acid receptor (Homo sapiens)	inactive
O=C(O)CCC(F)(F)C(F)(F)C(F)(F)C(F)(F)C(F)(F)C(F)(F)C(F)(F)F	Bile acid receptor (Homo sapiens)	inactive
NS(=O)(=O)C(F)(F)C(F)(F)C(F)(F)C(F)(F)C(F)(F)C(F)(F)F	Bile acid receptor (Homo sapiens)	inactive
C[Si](Cl)(Cl)CCC(F)(F)C(F)(F)C(F)(F)C(F)(F)C(F)(F)C(F)(F)F	Bile acid receptor (Homo sapiens)	inactive
N#CCCOCCC#N	Bile acid receptor (Homo sapiens)	inactive
COc1ccccc1C=O	Bile acid receptor (Homo sapiens)	inactive
CCCCOC(=O)C(C)O (stereo not given)	Bile acid receptor (Homo sapiens)	inactive
CCN(CC)c1ccc(C=O)c(O)c1	Bile acid receptor (Homo sapiens)	inactive
